Source listed as patent US8962842B2.

For each of the compounds below, state its solubility at 24 h.
# ASSAY_INFO: physchem
# Assay type: physicochemical
# TEST_CONDITIONS: pH 7.4, aqueous buffer, thermodynamic from solid

Query block: Supply measured solubility at 24 h of Cc1c(-c2cc(F)c(N)cc2F)ccn2c(=O)c(C(=O)[O-])cc(C3CC3)c12.[K+] [Example 28 K salt] in your reply.
Result block: 6 µM

Query block: Supply measured solubility at 24 h of Cc1c(-c2ccc(N)nc2)ccn2c(=O)c(C(=O)[O-])cc(C3CC3)c12.[K+] [Example 21 K salt] in your reply.
Result block: 200 µM

Query block: Supply measured solubility at 24 h of Cc1c(-c2ccc3[nH]ncc3c2)ccn2c(=O)c(C(=O)[O-])cc(C3CC3)c12.[K+] [Example 23 K salt] in your reply.
Result block: 37 µM

Query block: Supply measured solubility at 24 h of Cc1c(-c2ccc(N)c(F)c2)ccn2c(=O)c(C(=O)[O-])cc(C3CC3)c12.[K+] [Example 2 K salt] in your reply.
Result block: 28 µM

Query block: Supply measured solubility at 24 h of Cc1c(-c2ccc(O)cc2)ccn2c(=O)c(C(=O)[O-])cc(C3CC3)c12.[K+] [Example 46 K salt] in your reply.
Result block: 44 µM
